Where a name gives a salt, the structure may show the parent alone.
parameterMeasured: melting point

Some compounds with known melting point results, for comparison:
compound	value
CCC1(CCCCCN2CCN(c3ccccn3)CC2)C(=O)Nc2ccccc21 (stereo not drawn)	127 to 128 °C
CCC1(CCCCN2CCN(c3cccc(Cl)c3)CC2)C(=O)Nc2cc(F)c(Cl)cc21 (stereo not drawn) (as salt: hydrochloride) [Example 89, monohydrochloride]	237 to 239 °C
CCC1(CCCCN2CCN(c3ccccn3)CC2)C(=O)Nc2ccc(Cl)cc21 (stereo not drawn)	154 to 156 °C
CCC1(CCCCN2CCN(c3ccc(F)cc3)CC2)C(=O)Nc2ccccc21 (stereo not drawn)	118 to 119 °C
CCC1(CCCCN2CCN(c3ccccc3)CC2)C(=O)Nc2ccccc21 (stereo not drawn) (as salt: oxalate) [Example 68, monooxalate]	121 to 123 °C

Exercise: I would be grateful if you could share the reported melting point for CCC1(CCCCN2CCN(c3ccc(Cl)c(C(F)(F)F)c3)CC2)C(=O)Nc2ccccc21 (stereo not drawn) (as salt: hydrochloride) [Example 96, monohydrochloride] .
Key: 204 to 206 °C

Exercise: I would be grateful if you could share the reported melting point for CC(C)CC1(CCCCN2CCN(c3ccccn3)CC2)C(=O)Nc2ccccc21 (stereo not drawn) .
Key: 158 to 159 °C

Exercise: I would be grateful if you could share the reported melting point for CCC1(CCCCN2CCN(c3ccc(Cl)cc3)CC2)C(=O)Nc2c(Cl)cc(Cl)cc21 (stereo not drawn) .
Key: 152 to 154 °C

Exercise: I would be grateful if you could share the reported melting point for CCC1(CCCCN2CCN(c3cccc(Cl)c3)CC2)C(=O)Nc2ccc(S(N)(=O)=O)cc21 (stereo not drawn) (as salt: oxalate) [Example 72, monooxalate] .
Key: 188 to 190 °C

Exercise: I would be grateful if you could share the reported melting point for CCC1(CCCCCN2CCN(c3ccc(Cl)cc3)CC2)C(=O)Nc2ccccc21 (stereo not drawn) .
Key: 142 to 143 °C

Exercise: I would be grateful if you could share the reported melting point for CCC1(CCCN2CCN(c3cccc(Cl)c3)CC2)C(=O)Nc2ccc(Cl)cc21 (stereo not drawn) .
Key: 117 to 119 °C

Exercise: I would be grateful if you could share the reported melting point for CCC1(CCCCN2CCN(c3ccc(OC)cc3)CC2)C(=O)Nc2ccccc21 (stereo not drawn) .
Key: 109 to 110 °C

Exercise: I would be grateful if you could share the reported melting point for CCC1(CCCCN2CCN(c3cc(Cl)cc(Cl)c3)CC2)C(=O)Nc2ccc(F)cc21 (stereo not drawn) .
Key: 122 to 124 °C

Exercise: I would be grateful if you could share the reported melting point for CCC1(CCCN2CCN(c3ccccn3)CC2)C(=O)Nc2ccccc21 (stereo not drawn) .
Key: 122 to 124 °C

Exercise: I would be grateful if you could share the reported melting point for CCC1(CCCCN2CCN(c3cccc(Cl)c3)CC2)C(=O)Nc2ccccc21 (stereo not drawn) (as salt: HCl) (hydrate or solvate) .
Key: 109 to 111 °C

Exercise: I would be grateful if you could share the reported melting point for CCC1(CCCCN2CCN(c3ccc(F)cc3Cl)CC2)C(=O)Nc2ccccc21 (stereo not drawn) .
Key: 125 to 126 °C

Exercise: I would be grateful if you could share the reported melting point for CCC1(CCCCN2CCN(c3ccc(F)cc3)CC2)C(=O)Nc2ccc(C)cc21 (stereo not drawn) .
Key: 146 to 149 °C

Exercise: I would be grateful if you could share the reported melting point for CCC1(CCCCN2CCN(c3cccc(OC)c3)CC2)C(=O)Nc2ccccc21 (stereo not drawn) .
Key: 123 to 125 °C

Exercise: I would be grateful if you could share the reported melting point for CCC1(CCCCN2CCN(c3cccc4c3OCCO4)CC2)C(=O)Nc2ccccc21 (stereo not drawn) .
Key: 169 to 170 °C
